Biological target: HLA-A*02:06
Assay: IEDB peptide-MHC binding, purified MHC/competitive/radioactivity; filed as Kd, often an IC50 or EC50 that approximates it; bounds were set here for any values at or beyond the usual limits of such assays
Details: source organism: Dengue virus 1 Brazil/97-11/1997
endpoint name: Kd

GET /value?item= `FSLGILCVSI` &field=Kd returns 3.63 nM

GET /value?item= `WAYHGSYEV` &field=Kd returns 24.5 nM

====

Biological target: HLA-B*45:01
Experiment: IEDB peptide-MHC binding, purified MHC/competitive/radioactivity; filed as Kd, often an IC50 or EC50 that approximates it; bounds were set here for any values at or beyond the usual limits of such assays
Conditions: source organism: Lassa virus Josiah
endpoint name: pKd
Worth noting: pKd values are minus log10 of concentrations stated in mol/L.

GET /value?item= `AELLNNQFGT` &field=pKd returns 4.94
